The origin of these recorded values is the RNAGym collection of RNA variant scans (doi:10.1126/science.aae0568).

Collected yeast fitness values appear next to each entry.
B1: tRNA (parent)
chain: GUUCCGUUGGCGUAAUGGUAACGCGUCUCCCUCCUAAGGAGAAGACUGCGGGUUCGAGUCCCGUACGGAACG

Variants of: B1
protocol_details: yeast fitness relative to wild type (ratio to wild type); higher = fitter; tRNA-Arg(CCU), competitive growth, 37 C, YPD
Variants at the floor of the assay were thinned out.
value_kind: yeast fitness

* U19A A42U C46G | 0.988
* G18A A42C A69U | 0.542
* C5U G12A | 0.959
* C29U A42U A43U C55G | 0.545
* C5U G48A A69C | 0.758
* C34A C46U A65C | 0.569
* A21C C30G C66A | 0.572
* U8C A14U C30A C61U C62A A70G | 0.532
* C11A G56A C66G | 0.533
* C27A G39C | 0.616
* C34U A36C A40C C55A C66U | 0.526
* C24U U32C G39C | 0.517
* A15U U16A C27G | 0.59
* G6A C33U | 0.649
* G18A A21U U32A G56A | 0.561
* G10A G44A C66U | 0.534
* C27U C30U A70G | 0.624
* A15G A20C C24G | 0.626
* U3C C27U C46G | 0.789
* U16A U19A | 0.952
* C24G C30G G39A | 0.593
* G12A A14G | 0.958
* A42U G67C | 0.69
* G38A A45C | 0.818
* G6A C11A C66U | 0.592
